Below, each entry is listed with its recorded MIC.
Tested on: Trichosporon beigelii
assay_comment: In vitro minimum inhibitory concentration of compound was determined against Trichosporon beigelii after 24 hr r
Assay type: functional
quantity: MIC (µM)

* COc1ccc(C2=CC(C)OC2=O)cc1 (configuration not stated) | 1000
* CC1C=C(c2ccc(Cl)cc2)C(=O)O1 (configuration not stated) | 125
* CC1C=C(c2ccc(Cl)c(Cl)c2)C(=O)O1 (configuration not stated) | 31.2
* CC1C=C(c2ccc(F)cc2)C(=O)O1 (configuration not stated) | 125
* CC1C=C(c2ccc([N+](=O)[O-])cc2)C(=O)O1 (configuration not stated) | 500
* CC1C=C(c2cccc(F)c2)C(=O)O1 (configuration not stated) | 250
